target: African green monkey C5 (African green monkey); experiment: cell-based or functional assay
experimental-readout: AGM CP % Max Inhibition, hemolysis assay, 5% serum (%)

INSERT INTO measurements (binder, experimental_value) VALUES
  ('H4H12167P (antibody, human IgG4, V domains shown, H4H: human IgG4 Fc with S108P hinge mutation) VH: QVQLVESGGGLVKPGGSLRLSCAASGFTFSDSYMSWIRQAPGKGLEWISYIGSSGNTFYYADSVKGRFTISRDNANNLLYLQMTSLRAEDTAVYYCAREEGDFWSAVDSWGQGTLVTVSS VL: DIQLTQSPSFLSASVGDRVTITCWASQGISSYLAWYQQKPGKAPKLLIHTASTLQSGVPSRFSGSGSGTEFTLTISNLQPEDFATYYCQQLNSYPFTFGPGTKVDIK', 90.5),
  ('H4H12170P (antibody, human IgG4, V domains shown, H4H: human IgG4 Fc with S108P hinge mutation) VH: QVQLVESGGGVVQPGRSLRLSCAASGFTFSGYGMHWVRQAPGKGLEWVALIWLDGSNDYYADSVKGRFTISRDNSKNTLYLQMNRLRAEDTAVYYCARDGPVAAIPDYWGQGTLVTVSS VL: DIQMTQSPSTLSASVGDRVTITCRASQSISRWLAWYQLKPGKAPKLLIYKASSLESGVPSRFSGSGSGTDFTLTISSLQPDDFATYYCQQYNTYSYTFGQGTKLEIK', 94.9),
  ('H4H11683N (antibody, human IgG4, V domains shown, tested with H4H prefix (human IgG4 Fc with S108P hinge mutation); variable regions follow the numerical identifier; also called H2M11683N) VH: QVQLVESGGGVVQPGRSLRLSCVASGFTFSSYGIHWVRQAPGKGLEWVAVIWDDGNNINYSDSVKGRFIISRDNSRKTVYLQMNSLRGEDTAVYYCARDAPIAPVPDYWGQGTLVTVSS VL: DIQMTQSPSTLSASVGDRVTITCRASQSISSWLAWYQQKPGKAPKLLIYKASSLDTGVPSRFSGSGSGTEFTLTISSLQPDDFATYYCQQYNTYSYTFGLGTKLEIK', 81.1);
